# test-description: In vitro protein binding with radiolabeled 3H-sertraline
# Type: in vitro ADME
# test-conditions: serum, 20 to 500 ng/mL, read-out: binding to serum proteins (converted)
endpoint-label: fraction unbound
Give bare numbers.

Lab note: measured fraction unbound of CN[C@H]1CC[C@@H](c2ccc(Cl)c(Cl)c2)c2ccccc21.Cl [sertraline, hydrochloride] was 0.02

----------
# test-description: clinical
# test-conditions: human, in vivo
endpoint-label: dose excreted at 216 h

Lab note: measured dose excreted at 216 h of CN[C@H]1CC[C@@H](c2ccc(Cl)c(Cl)c2)c2ccccc21.Cl was 12 to 14%

----------
# test-description: clinical
# test-conditions: human, in vivo, mean half-life
endpoint-label: half-life (h)
Answers are plain numbers, in h.

Lab note: measured half-life of CN[C@H]1CC[C@@H](c2ccc(Cl)c(Cl)c2)c2ccccc21.Cl [sertraline] was 26.2
